# Tested on: CCRF-CEM
# assay: NCI tumour cell line growth inhibition, 48 h
Active and inactive are the calls of the source. Rule as the data show it: active = GI50 up to about 1.1 µM and inactive = higher.
Write down the outcome that applies. Available outcomes: active, inactive

INSERT INTO measurements (molecule, assigned_category) VALUES
  ('COc1ccc(OC(=O)N2C/C(=C\c3ccccc3)C(=O)/C(=C/c3ccccc3)C2)cc1', 'active'),
  ('COc1ccc(OCC(=O)O)c2c1CCC(C(C)C)C2=O (stereo not given)', 'inactive'),
  ('CC1=C(/C=C/C(C)=C/C=C/C(C)=C/C(=O)OC2CC(n3cc(F)c(=O)[nH]c3=O)OC2CO)C(C)(C)CCC1 (stereo not given)', 'active'),
  ('NC1=NC2(COC(c3ccccc3)(c3ccccc3)c3ccccc3)OC(COC(c3ccccc3)(c3ccccc3)c3ccccc3)C(O)C2O1 (stereo not given)', 'inactive');

Next item in the queue.
Which result was noted for this molecule in the test: CCO[C@@H]1C2C=CC(C2)[C@H]1[N+](=O)[O-] (stereo not given in full) inactive

Origin of values: ChEMBL document CHEMBL1201862
